Listed compounds paired with reported selectivity ratio
- Protocol Notes: Selectivity index, ratio of CC50 for human MT4 cells to EC50 for HIV1 RES056 harboring reverse transcriptase K103N/Y181C mutant infected in human MT4 cells
- Assay type: toxicity, cell-based
- Stated Conditions: read-out: Ratio CC50/EC50
Quantity Measured: selectivity ratio

Cc1cc(C#N)cc(C)c1Oc1ccc([N+](=O)[O-])c(NC2CCN(Cc3ccncc3)CC2)c1 = < 1
Cc1cc(C#N)cc(C)c1Oc1ccc([N+](=O)[O-])c(NC2CCN(Cc3ccc([N+](=O)[O-])cc3)CC2)c1 = < 1
Cc1cc(C)c(Oc2ccc([N+](=O)[O-])c(NC3CCN(Cc4ccccc4)CC3)c2)c(C)c1 = < 1
Cc1cc(C)c(Oc2ccc([N+](=O)[O-])c(NC3CCN(Cc4ccc(C(=O)O)cc4)CC3)c2)c(C)c1 = < 1
O=c1[nH]cnc2c1ncn2[C@H]1CC[C@@H](CO)O1 = > 12
O=C1Nc2ccc(Cl)cc2[C@@](C#CC2CC2)(C(F)(F)F)O1 = > 12
Cc1cc(C)c(Oc2ccc([N+](=O)[O-])c(NC3CCN(Cc4ccc(S(N)(=O)=O)cc4)CC3)c2)c(C)c1 = < 1
Cc1cc(C#N)cc(C)c1Oc1ccc([N+](=O)[O-])c(NC2CCN(Cc3ccc(CO)cc3)CC2)c1 = < 1
Cc1cn([C@H]2C[C@H](N=[N+]=[N-])[C@@H](CO)O2)c(=O)[nH]c1=O = > 12600
Cc1cc(C)c(Oc2ccc([N+](=O)[O-])c(NC3CCN(Cc4ccncc4)CC3)c2)c(C)c1 = < 1
Cc1cc(C#N)cc(C)c1Oc1ccc([N+](=O)[O-])c(NC2CCN(Cc3ccccc3)CC2)c1 = < 1
CC(=O)c1ccc(CN2CCC(Nc3cc(Oc4c(C)cc(C)cc4C)ccc3[N+](=O)[O-])CC2)cc1 = < 1
Cc1cc(C)c(Oc2ccc([N+](=O)[O-])c(NC3CCN(Cc4ccc([N+](=O)[O-])cc4)CC3)c2)c(C)c1 = < 1
Cc1cc(C)c(Oc2ccc([N+](=O)[O-])c(NC3CCN(Cc4ccc(CO)cc4)CC3)c2)c(C)c1 = < 1
Cc1cc(C#N)cc(C)c1Oc1ccc([N+](=O)[O-])c(NC2CCN(Cc3ccc(C(N)=O)cc3)CC2)c1 = < 1
Cc1cc(C)c(Oc2ccc([N+](=O)[O-])c(NC3CCN(Cc4ccc(S(C)(=O)=O)cc4)CC3)c2)c(C)c1 = < 1
Cc1cc(C#N)cc(C)c1Oc1ccc([N+](=O)[O-])c(NC2CCN(Cc3ccc(S(N)(=O)=O)cc3)CC2)c1 = < 1

----------
- Tested on: Human immunodeficiency virus 2
- Protocol Notes: Antiviral activity against HIV2 ROD infected in human MT4 cells assessed as inhibition of viral cytopathicity after 5 days by MTT assay
- Assay type: functional, organism-based
- Stated Conditions: Human immunodeficiency virus 2, ISOLATE ROD, MT4, 120 h
Quantity Measured: EC50

Cc1cc(C#N)cc(C)c1Oc1ccc([N+](=O)[O-])c(NC2CCN(Cc3ccncc3)CC2)c1 = > 19 µM
Cc1cn([C@H]2C[C@H](N=[N+]=[N-])[C@@H](CO)O2)c(=O)[nH]c1=O = 0.0057 µM
Cc1cc(C)c(Oc2ccc([N+](=O)[O-])c(NC3CCN(Cc4ccc(C(N)=O)cc4)CC3)c2)c(C)c1 = > 27 µM
CC(=O)c1ccc(CN2CCC(Nc3cc(Oc4c(C)cc(C)cc4C)ccc3[N+](=O)[O-])CC2)cc1 = > 138 µM
